- System: Saccharomyces cerevisiae
- assay-details: Inhibition of Saccharomyces cerevisiae TEL::URA3 SIR2-mediated URA3 reporter gene silencing at 50 uM after 24 to 48 hrs in presence of 5-FOA relative to control
experimental-readout: inhibition (%)
Your answer is read as %, so omit the unit and give the number.

IN: Returns the measured inhibition for the input molecule. Input: CCOC(=O)C1=C(C)Oc2c(I)c(-c3ccccc3)oc(=O)c2C1c1cccc(F)c1 (stereo not given)
OUT: 0.5

IN: Returns the measured inhibition for the input molecule. Input: CCCCC#Cc1c(-c2ccccc2)oc(=O)c2c1OC1=C(C(=O)CC(C)(C)C1)C2c1cccc(O)c1 (stereo not given)
OUT: 1.01

IN: Returns the measured inhibition for the input molecule. Input: CCC1C2=C(CC(C)(C)CC2=O)Oc2c(I)c(-c3ccccc3)oc(=O)c21 (stereo not given)
OUT: 43.9

IN: Returns the measured inhibition for the input molecule. Input: CC1(C)CC(=O)C2=C(C1)Oc1c(-c3ccccc3)c(-c3ccccc3)oc(=O)c1C2c1cccc(O)c1 (stereo not given)
OUT: 3.3

IN: Returns the measured inhibition for the input molecule. Input: COc1ccc(C2C3=C(CC(C)(C)CC3=O)Oc3c(I)c(-c4ccccc4)oc(=O)c32)cc1 (stereo not given)
OUT: 32.4

IN: Returns the measured inhibition for the input molecule. Input: CCOC(=O)C1=C(C)Oc2c(-c3ccc(O)cc3)c(-c3ccccc3)oc(=O)c2C1c1cccc(F)c1 (stereo not given)
OUT: 1.51

Others:
IN: Returns the measured inhibition for the input molecule. Input: CC1(C)CC(=O)C2=C(C1)Oc1c(I)c(-c3ccccc3)oc(=O)c1C2c1cccs1 (stereo not given)
OUT: 43.2

IN: Returns the measured inhibition for the input molecule. Input: CC1(C)CC(=O)C2=C(C1)Oc1c(I)c(C3(O)CCCCC3)oc(=O)c1C2c1ccc(F)cc1 (stereo not given)
OUT: 25.3

IN: Returns the measured inhibition for the input molecule. Input: CC1(C)CC(=O)C2=C(C1)Oc1c(I)c(-c3ccccc3)oc(=O)c1C2c1ccc(F)cc1 (stereo not given)
OUT: 49.5

IN: Returns the measured inhibition for the input molecule. Input: CC1(C)CC(=O)C2=C(C1)Oc1c(I)c(-c3ccccc3)oc(=O)c1C2c1ccco1 (stereo not given)
OUT: 15.3
